B1: C22orf31 (parent)
chain: YSLELGKAIKQKLWEALCSQGAIS

Variants of: B1
testName: protein stability index of a GFP-peptide fusion (GPS, HEK-293T) (PSI 1-6); higher = more stable;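 further: lentivirally expressed fusions sorted by FACS into six bins by GFP to DsRed ratio, PSI derived from sequencing read proportions per bin multiplied by bin number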
condition: c terminus: a fixed tail appended
Assign MET to entries whose protein stability index meets or exceeds 3; assign NOT MET to the rest.

| mutationDescriptor | discreteLabel |
| --- | --- |
| W14P | MET |
| C18N | MET |
| Y1A | NOT MET |
| W14Q | NOT MET |
| C18P | NOT MET |
| A8S | NOT MET |
| S24R | NOT MET |
| W14L | MET |
| Y1E | NOT MET |
| W14I | MET |
| L13N | NOT MET |
| I23A | NOT MET |
| Q20E | NOT MET |
| I9R | NOT MET |
| L3M | NOT MET |
| L5Y | NOT MET |
| A16T | MET |
| A16C | NOT MET |
| C18A | NOT MET |
| K12V | NOT MET |
| G21A | MET |
| K7D | NOT MET |
| A8K | NOT MET |
| I9F | NOT MET |
| S2H | NOT MET |
| A16E | NOT MET |
| Q11S | NOT MET |
| K7V | NOT MET |
| L3A | NOT MET |
| L17R | NOT MET |
| E4G | NOT MET |
| A16L | NOT MET |
| L13C | NOT MET |
| K7P | NOT MET |
| K7T | NOT MET |
| L5S | NOT MET |
| L17M | NOT MET |
| S19F | NOT MET |
| K7G | NOT MET |
| W14D | MET |
